Reference for the values: ChEMBL document CHEMBL1122223

Species: Oryctolagus cuniculus
TEST PROTOCOL: Antagonistic activity against K+ induced responses in rabbit aorta
Assay type: functional
CONDITION DETAILS: read-out: ID50 (the source's name)
OBSERVATION TYPE: IC50 (µM)

COc1ccc(CCN(C)CCCC(C#N)(c2ccc(OC)c(OC)c2)C(C)C)cc1OC (stereo unspecified) :: 0.03

----------
Species on record: Oryctolagus cuniculus
TEST PROTOCOL: Inhibition of contraction in rabbit pulmonary artery, K+.
Format: functional
CONDITION DETAILS: read-out: ID50 (the source's name)
pIC50: −log10 of the molar value.
OBSERVATION TYPE: pIC50

COc1ccc(CCN(C)CCCC(C#N)(c2ccc(OC)c(OC)c2)C(C)C)cc1OC (stereo unspecified) :: 6.40
